target: Voltage-gated L-type calcium channel (Rattus norvegicus, UniProt P22002+Q02485+P27732); assay: Inhibition of [3H]nitrendipine binding to calcium channels in the rat brain.; assay type: tissue-based
Listed below: IC50 values for each entry.
Enter your answer as a number in µM; do not include the unit.

Worked examples, 2 compounds total:
What value of IC50 has been recorded for this entry: `CCOC(=O)[C@@H]1/C(=C/C(=O)c2ccccc2)N=C(C)/C(=C(/O)OCC)[C@H]1c1ccccc1C(F)(F)F`
0.2969

Subsequent entry: CCOC(=O)C1=C(C)N=C(/C=C(\O)OCC)C(C(=O)OCC)C1c1ccccc1C(F)(F)F (stereo not drawn)
0.3469

New cases:
What value of IC50 has been recorded for this entry: `CCOC(=O)[C@@H]1/C(=C/C(=O)c2ccncc2)N=C(C)/C(=C(/O)OCC)[C@H]1c1ccccc1C(F)(F)F`
0.0255

Subsequent entry: CCOC(=O)CC1=C(C(=O)OCC)C(c2ccccc2C(F)(F)F)/C(=C(\O)OCC)C(C)=N1 (stereo not drawn)
0.02

Subsequent entry: `CCOC(=O)[C@@H]1/C(=C/C(=O)c2ccc(C)cc2)N=C(C)/C(=C(/O)OCC)[C@H]1c1ccccc1C(F)(F)F`
0.4137

###

Listed below: EC25 values for each entry.
tested on: Rattus norvegicus; test: Concentration required to produce 25% increase in intraventricular pressure(LV dp/dt); format: functional, Cardiac ventricle
Enter your answer as a number in nM; do not include the unit.

Recall the recorded EC25 for COC(=O)C1=C(C)NC(C)=C(C(=O)OC)C1c1ccccc1[N+](=O)[O-] [NIFEDIPINE] with Rattus norvegicus and state it.
300

New cases:
Recall the recorded EC25 for `CCOC(=O)C1=C(C)N=C(/C=C(\O)c2ccccc2)[C@@H](C(=O)OCC)[C@@H]1c1ccccc1` with Rattus norvegicus and state it.
500

Subsequent entry: `CCOC(=O)[C@@H]1/C(=C/C(=O)c2ccccc2)N=C(C)/C(=C(/O)OCC)[C@H]1c1ccccc1[N+](=O)[O-]`
2200

Subsequent entry: `CCOC(=O)[C@@H]1C(/C=C(\O)c2ccccc2)=NC2=C(C(=O)CCC2)[C@H]1c1ccccc1C(F)(F)F`
1500

###

Listed below: IC50 values for each entry.
molecular target: Voltage-gated L-type calcium channel (Rattus norvegicus, UniProt P22002+Q02485+P27732); assay: Inhibition of [3H]nitrendipine binding to calcium channels in the rat brain.; format: tissue-based
Enter your answer as a number in nM; do not include the unit.

Worked examples, 2 compounds total:
What value of IC50 has been recorded for this entry: `CCOC(=O)C1=C(C)N=C(/C=C(\O)c2ccccc2)[C@@H](C(=O)OCC)[C@@H]1c1ccccc1`
912.8

Subsequent entry: `CCO/C(O)=C1C(C)=N/C(=C\C(=O)c2ccccc2)[C@@H](C(=O)c2ccccc2)[C@@H]\1c1ccccc1C(F)(F)F`
591.4

Turning now to a further compound:
What value of IC50 has been recorded for this entry: `CCOC(=O)[C@@H]1/C(=C/C(=O)c2ccccc2)N=C(C)/C(=C(/O)OCC)[C@H]1c1ccccc1[N+](=O)[O-]`
31.1

###

organism: Oryctolagus cuniculus; assay: The compound was tested for inhibition of potassium depolarized Rabbit aorta; format: functional
READOUT TYPE: pIC50
Remember the convention: pIC50 equals -log10 of concentration in molar.

Worked examples, 4 compounds total:
What value of pIC50 has been recorded for this entry: `CCOC(=O)[C@@H]1/C(=C/C(=O)c2ccncc2)N=C(C)/C(=C(/O)OCC)[C@H]1c1ccccc1C(F)(F)F`
5.51

Subsequent entry: `CCOC(=O)[C@@H]1/C(=C/C(=O)c2ccccc2)N=C(C)/C(=C(/O)OCC)[C@H]1c1ccccc1[N+](=O)[O-]`
4.77

Subsequent entry: `CCOC(=O)[C@@H]1/C(=C/C(=O)c2ccc(N(C)C)cc2)N=C(C)/C(=C(/O)OCC)[C@H]1c1ccccc1C(F)(F)F`
5.57

Subsequent entry: `CCOC(=O)[C@@H]1/C(=C/C(=O)c2ccc(F)cc2)N=C(C)/C(=C(/O)OCC)[C@H]1c1ccccc1C(F)(F)F`
3.82

Turning now to a further compound:
What value of pIC50 has been recorded for this entry: `COC(=O)C1=C(C)NC(C)=C(C(=O)OC)C1c1ccccc1[N+](=O)[O-]`
6.70

###

target: Voltage-gated L-type calcium channel (Rattus norvegicus, UniProt P22002+Q02485+P27732); experiment: Inhibition of [3H]nitrendipine binding to calcium channels in the rat brain.; type: tissue-based
READOUT TYPE: log10 IC50 (log10 of the value in nM)
Values are log10 of IC50 in nM.

Worked examples, 3 compounds total:
What value of log10 IC50 has been recorded for this entry: `CCOC(=O)[C@@H]1/C(=C/C(=O)c2ccc(F)cc2)N=C(C)/C(=C(/O)OCC)[C@H]1c1ccccc1C(F)(F)F`
2.07

Subsequent entry: `CCOC(=O)[C@@H]1/C(=C/C(=O)c2ccc(Cl)cc2)N=C(C)/C(=C(/O)OCC)[C@H]1c1ccccc1C(F)(F)F`
2.21

Subsequent entry: `CCOC(=O)[C@@H]1/C(=C/C(=O)c2ccc(N(C)C)cc2)N=C(C)/C(=C(/O)OCC)[C@H]1c1ccccc1C(F)(F)F`
1.50

Turning now to a further compound:
What value of log10 IC50 has been recorded for this entry: `CCOC(=O)[C@@H]1C(/C=C(\O)c2ccccc2)=NC(C)=C([N+](=O)[O-])[C@H]1c1ccccc1C(F)(F)F`
2.53

###

tested on: Rattus norvegicus; experiment: Concentration required to produce 25% increase in intraventricular pressure(LV dp/dt); format: functional, Cardiac ventricle
Listed below: EC25 values for each entry.

What value of EC25 has been recorded for this entry: `CCO/C(O)=C1C(C)=N/C(=C\C(=O)c2ccccc2)[C@@H](C(=O)c2ccccc2)[C@@H]\1c1ccccc1C(F)(F)F`
1200 nM

Subsequent entry: `CCOC(=O)[C@@H]1C(/C=C(\O)c2ccccc2)=NC(C)=C([N+](=O)[O-])[C@H]1c1ccccc1C(F)(F)F`
>300 nM

Subsequent entry: `CCOC(=O)[C@@H]1/C(=C/C(=O)c2ccc(F)cc2)N=C(C)/C(=C(/O)OCC)[C@H]1c1ccccc1C(F)(F)F`
>300 nM

Subsequent entry: `CCOC(=O)[C@@H]1/C(=C/C(=O)c2ccc(Cl)cc2)N=C(C)/C(=C(/O)OCC)[C@H]1c1ccccc1C(F)(F)F`
<100 nM

Subsequent entry: CCOC(=O)C1C(/C=C(\O)c2ccccc2)=NC(C)=C(C#N)C1c1ccccc1C(F)(F)F (configuration not stated)
3000 nM

New cases:
What value of EC25 has been recorded for this entry: `CCOC(=O)[C@@H]1/C(=C/C(=O)c2ccc(N(C)C)cc2)N=C(C)/C(=C(/O)OCC)[C@H]1c1ccccc1C(F)(F)F`
>300 nM

Subsequent entry: `CCOC(=O)[C@@H]1/C(=C/C(=O)c2ccc(C)cc2)N=C(C)/C(=C(/O)OCC)[C@H]1c1ccccc1C(F)(F)F`
>300 nM

###

Listed below: IC50 values for each entry.
biological target: Voltage-gated L-type calcium channel (Rattus norvegicus, UniProt P22002+Q02485+P27732); assay: Inhibition of [3H]nitrendipine binding to calcium channels in the rat brain.; type: tissue-based

What value of IC50 has been recorded for this entry: `CCOC(=O)C1=C(C)N=C(C2=C(O)c3ccccc3CC2)[C@@H](C(=O)OCC)[C@@H]1c1ccccc1C(F)(F)F`
> 1 µM

Subsequent entry: `CCOC(=O)[C@@H]1C(C2=C(O)c3ccccc3CC2)=NC(C)=C(C#N)[C@H]1c1ccccc1C(F)(F)F`
> 1 µM

Turning now to a further compound:
What value of IC50 has been recorded for this entry: `CC1=C([N+](=O)[O-])[C@@H](c2ccccc2C(F)(F)F)[C@H](C(=O)c2ccccc2)C(/C=C(\O)c2ccccc2)=N1`
> 1 µM

###

tested on: Rattus norvegicus; test: Concentration required to produce 25% increase in intraventricular pressure(LV dp/dt); format: functional, Cardiac ventricle
Listed below: EC25 values for each entry.

Worked examples, 4 molecules total:
Recall the recorded EC25 for CCOC(=O)C1=C(C)N=C(/C=C(\O)OCC)C(C(=O)OCC)C1c1ccccc1C(F)(F)F (stereo not given) with Rattus norvegicus and state it.
>300 nM

Subsequent entry: `CCOC(=O)[C@@H]1C(C2=C(O)c3ccccc3CC2)=NC(C)=C(C#N)[C@H]1c1ccccc1C(F)(F)F`
>1000 nM

Subsequent entry: `CCOC(=O)[C@@H]1/C(=C/C(=O)c2ccccc2)N=C(C)/C(=C(/O)OCC)[C@H]1c1cccc(Cl)c1Cl`
>300 nM

Subsequent entry: `CCOC(=O)[C@@H]1/C(=C/C(=O)c2ccccc2)N=C(C)/C(=C(/O)OCC)[C@H]1c1ccccc1C(F)(F)F`
>3000 nM

New cases:
Recall the recorded EC25 for `CCOC(=O)[C@@H]1/C(=C/C(=O)c2ccncc2)N=C(C)/C(=C(/O)OCC)[C@H]1c1ccccc1C(F)(F)F` with Rattus norvegicus and state it.
>300 nM
